# test.system: FLuc-C-HiBiT (Photinus pyralis)
# Construct: firefly luciferase with C-terminal HiBiT tag, E. coli expressed
# Sequence (P08659 whole entry, looked up): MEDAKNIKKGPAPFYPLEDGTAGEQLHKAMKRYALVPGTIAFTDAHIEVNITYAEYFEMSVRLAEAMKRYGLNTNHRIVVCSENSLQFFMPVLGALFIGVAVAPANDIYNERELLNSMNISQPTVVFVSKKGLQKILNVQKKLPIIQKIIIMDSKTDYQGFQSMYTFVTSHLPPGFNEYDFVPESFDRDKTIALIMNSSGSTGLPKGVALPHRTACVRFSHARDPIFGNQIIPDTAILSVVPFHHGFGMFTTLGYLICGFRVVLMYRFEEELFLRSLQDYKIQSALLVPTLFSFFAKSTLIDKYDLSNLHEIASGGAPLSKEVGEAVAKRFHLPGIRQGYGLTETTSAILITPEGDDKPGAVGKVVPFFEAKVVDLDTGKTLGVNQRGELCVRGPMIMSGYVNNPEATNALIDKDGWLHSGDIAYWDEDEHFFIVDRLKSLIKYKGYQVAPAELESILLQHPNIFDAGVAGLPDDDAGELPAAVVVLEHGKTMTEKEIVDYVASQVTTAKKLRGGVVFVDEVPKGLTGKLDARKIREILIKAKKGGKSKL
# method: biochemical
# experimental.parameters: enzyme activity, 10 uM ATP; read-out: IC50 or SDR50 (mM) / FLuc E
quantity.kind: IC50 (µM)

[P] CC(C)(C)C(=O)Nc1ccc(-c2nc3ccccc3s2)cc1 [NCGC00118992-01]
[Q] COc1cccc(Nc2cc3c(cn2)CN(C(C)=O)CCN3)c1 [NCGC00411096-01]
[R] COc1ccccc1NC(=O)Cn1c(C)ccc(NC(=O)Nc2ccc(C)cc2)c1=O [NCGC00430778-01]
[S] Cc1nn(-c2ccc(C(C)C)cc2)c(C)c1[C@@H]1C=C[C@@H](NC(=O)Nc2ccccc2)C1 [NCGC00421405-01]
Put the listed items above in order, lowest IC50 first. # respond with the labels, arranged in the requested order P, R, Q, S

[P] COc1ccc(-c2noc(Nc3ccc(C)c(C)c3)n2)cc1 [NCGC00422330-01]
[Q] CCOc1nccn2c(-c3ccc(CNC(=O)CNC(C)=O)cc3)cnc12 [NCGC00413921-01]
[R] Nc1cccc(-c2ccc(N3CCCCC3)nn2)c1 [NCGC00432709-01]
[S] Cc1ccc(-c2cc3c(=O)n(CCNC(=O)C4CCCCC4)ccn3n2)c(C)c1 [NCGC00456958-01]
[T] Cc1ccc(-c2noc(-c3ccccc3Br)n2)cc1 [NCGC00079622-01]
Sort the 5 compounds by IC50; largest first, smallest last. # respond with the labels, arranged in the requested order Q, P, S, T, R

[a] COCCN1CCOc2nc(-c3cc(F)cc(OC)c3)ncc2C1=O [NCGC00413569-01]
[b] COc1cccc(CNc2nc3ccccc3c3nc(-c4cccc(C)c4)nn23)c1 [NCGC00112594-01]
Choose between a and b : whose measured IC50 value is numerically larger? Please indicate the selected item by its label. a
(a: 11.4 µM, b: 7.85 µM)

[a] CCC(=O)Nc1cnc(-c2ccc(C)cc2)nc1 [NCGC00432895-01]
[b] Cc1ccc(NC(=O)C2CCN(c3nc(-c4ccc(C(C)C)cc4)no3)CC2)c(Cl)c1 [NCGC00134062-01]
[c] CSc1ccc(/C=C/c2nc3ccccc3n2[S+](=O)([O-])c2ccc(F)c(C)c2)cc1 [NCGC00139450-01]
Put these in order: smallest IC50 first, largest last. # respond with the labels, arranged in the requested order c, a, b

[1] O=C(NC1CCCN(c2cc(-c3ccc(F)cc3)n[nH]2)C1)c1ccc2ncccc2c1 (centres unmarked) [NCGC00437580-01]
[2] O=C(COc1ccccc1)Nc1nnc([S+](=O)([O-])Nc2ccccc2)s1 [NCGC00120845-01]
[3] c1ccc(Nc2ncc(-c3cccnc3)c3c2OCC3)cc1 [NCGC00412806-01]
[4] CNC(=O)c1cccc2c1CCN2C(=O)Nc1ccc(C)cc1 [NCGC00430160-01]
[5] Cc1ccc(-n2ncc3c(N4CCC(C)CC4)ncnc32)cc1C [NCGC00139121-01]
Sort the 5 compounds by IC50; largest first, smallest last. # respond with the labels, arranged in the requested order 3, 2, 1, 5, 4

[P] Fc1ccc(NCc2ccccc2-c2nnc(-c3ccccc3Cl)o2)cc1Cl [NCGC00107402-01]
[Q] Cc1cccc(NC(=O)c2ccc(-c3ccccc3)s2)c1 [NCGC00114320-01]
[R] CC1CCN(c2ncnc3c2cnn3-c2ccccc2)CC1 [NCGC00081403-02]
[S] Clc1ccccc1Cc1cn2cc(-c3ccccc3)nc2s1 [NCGC00102100-01]
Put these in order: smallest IC50 first, largest last. # respond with the labels, arranged in the requested order S, Q, R, P
(S: 0.442 µM, Q: 2.79 µM, R: 6.24 µM, P: 15.7 µM)

[a] Cc1ccc2oc(-c3ccc(C)c(NC(=O)/C=C/c4ccc(Cl)cc4)c3)nc2c1 [NCGC00103154-01]
[b] O=C(Nc1nc2ccccc2s1)c1ccc2c(c1)OCCN(CCC(F)(F)F)C2 [NCGC00418456-01]
Smaller IC50 value, a vs b ? Please indicate the selected item by its label. a
(a: 11.1 µM, b: 20.2 µM)

[A] CN1CCN(c2ccc(-c3cc4c(ccn4C)c(C(=O)NCCC(N)=O)n3)cc2)CC1 [NCGC00411733-01]
[B] CC(=O)N1CCc2ccc(C(=O)NC3CCCCCC3)cc21 [NCGC00430256-01]
[C] Fc1ccccc1-c1nc(-c2ccccc2)no1 [NCGC00058026-03]
Sort the 3 compounds by IC50; largest first, smallest last. # respond with the labels, arranged in the requested order A, B, C
(A: 14.3 µM, B: 6.24 µM, C: 1.57 µM)
